- target.system: Type-2 angiotensin II receptor (Rattus norvegicus, UniProt P35351)
- Sequence (P35351 whole entry): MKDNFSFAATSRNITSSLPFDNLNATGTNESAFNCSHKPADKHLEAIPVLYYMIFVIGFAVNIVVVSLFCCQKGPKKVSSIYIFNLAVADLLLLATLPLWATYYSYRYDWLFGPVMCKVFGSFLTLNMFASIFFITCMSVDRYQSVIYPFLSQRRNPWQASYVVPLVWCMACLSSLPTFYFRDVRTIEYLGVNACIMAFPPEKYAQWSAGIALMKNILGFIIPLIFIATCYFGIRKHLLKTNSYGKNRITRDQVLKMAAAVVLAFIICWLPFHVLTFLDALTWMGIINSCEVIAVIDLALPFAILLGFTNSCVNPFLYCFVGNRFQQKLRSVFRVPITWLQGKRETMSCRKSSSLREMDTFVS
- assay.info: […] inhibitory concentration against Angiotensin II, type 2 of rat midbrain membrane
measured.parameter: IC50 (nM)

CCc1nc2ccc(NC(=O)N(C)C(C)C)cc2c(=O)n1Cc1ccc(-c2ccccc2S(=O)(=O)NC(=O)COCC(C)C)cc1F 0.21

a = CCc1nc2ccc(NC(=O)c3ccccn3)cc2c(=O)n1Cc1ccc(-c2ccccc2S(=O)(=O)NC(=O)OCCC(C)C)cc1F
b = CCc1nc2ccc(NC(=O)N(C)C(C)C)cc2c(=O)n1Cc1ccc(-c2ccccc2S(=O)(=O)NC(=O)OCC=C(C)C)cc1F
c = CCCc1nc2ccc(NC(=O)NC(C)C)cc2c(=O)n1Cc1ccc(-c2ccccc2S(=O)(=O)NC(=O)c2ccc(CC)cc2F)cc1F
[in] Put these in order: smallest IC50 first, largest last. When ranking, write the labels in the order the request describes.
[out] c, b, a

1 = CCNC(=O)Nc1ccc2nc(CC)n(Cc3ccc(-c4ccccc4S(=O)(=O)NC(=O)c4ccccc4F)cc3F)c(=O)c2c1
2 = CCCc1nc2ccc(NC(=O)NC(C)C)cc2c(=O)n1Cc1ccc(-c2ccccc2S(=O)(=O)NC(=O)COCC(C)C)cc1F
3 = CCNC(=O)Nc1ccc2nc(CC)n(Cc3ccc(-c4ccccc4S(=O)(=O)NC(=O)OCCC4CC4)cc3F)c(=O)c2c1
[in] Order the records by IC50, with each subsequent value no larger than the one before. When ranking, write the labels in the order the request describes.
[out] 1, 2, 3
(1: 1.6 nM, 2: 1 nM, 3: 0.56 nM)
